Test system: ARPE-19 human retinal cells
Assay text: MTS cell growth assay
Type: cell-based
Measurement context: read-out: IC50 (cell growth); ARPE-19; 48 hr; MTS; Avg ± SD, N = 3 biological replicates
Endpoint name: IC50
Provide a numeric answer, followed by its unit.

Value of IC50 reported for the molecule C=CCNC1=C2C[C@@H](C)C[C@H](OC)[C@H](O)[C@@H](C)/C=C(\C)[C@H](OC(N)=O)[C@@H](OC)/C=C\C=C(/C)C(=O)NC(=CC1=O)C2=O is 0.02 µM

* * *

Tested on: ARPE-19 human retinal cells
Assay text: MTS cell growth assay
Assay type: cell-based
Measurement context: Homo sapiens, ARPE-19, 48 h, read-out: IC50 (cell growth)
Endpoint name: IC50 (nM)
Expressed in nM, but write only the number.

get_value(item= CCc1cc(C(N)=O)ccc1-n1nc(C(C)C)c2c(-n3cnc(-c4cnn(C)c4)c3)ccnc21 , readout=IC50) returns 444

// data source = paper PMC11779861
